Values compiled from patent EP0390515A1.

assay: Water solubility; format: physicochemical
For each of the molecules below, state its solubility.
Give a bare numeral; the unit µg/mL is implied.

Q: Look up solubility: c1ccc(CNc2ncnc3nc[nH]c23)cc1 [Benzyladenine, 6-benzylaminopurine, reference compound]
Result: 30

Q: Give its solubility value. Item: c1coc(CNc2ncnc3[nH]cnc23)c1 [Kinetin, reference compound]
Result: 20

---

Record form. Attribute: The senescence retardation (%). Fill in for each entry.
test system: Rice seeds (var.: Nankin No. 11) leaf section; experiment: Assay of cytokinin activity by measurement of chlorophyll content (senescence retardation of rice leaf sections); assay type: cell-based, Rice (var.: Nankin No. 11); conditions: 1.0 mg/l, dark, 30°C, 3 days
State the answer as a number, implicitly in %.

Q: Param readout= The senescence retardation (%); system= Rice seeds (var.: Nankin No. 11) leaf section; entry= CON(C)CCNc1ncnc2nc[nH]c12 ; returns value.
Result: 95

Q: Provide the documented The senescence retardation (%) with Rice seeds (var.: Nankin No. 11) leaf section as the system for CON(C)CCCNc1ncnc2nc[nH]c12
Result: 94

Q: Request body: readout The senescence retardation (%), system Rice seeds (var.: Nankin No. 11) leaf section, query c1ccc(CNc2ncnc3nc[nH]c23)cc1 [Benzyladenine, 6-benzylaminopurine, reference compound] . Return the value.
Result: 93

Q: Record CON(C)CCCCNc1ncnc2nc[nH]c12 : what is its The senescence retardation (%) with Rice seeds (var.: Nankin No. 11) leaf section?
Result: 21

---

Hi there, I'd appreciate the recorded The senescence retardation (%) for every entry that follows.
test system: Rice seeds (var.: Nankin No. 11) leaf section; test: Assay of cytokinin activity by measurement of chlorophyll content (senescence retardation of rice leaf sections); type: cell-based, Rice (var.: Nankin No. 11); conditions: 0.01 mg/l, dark, 30°C, 3 days
Enter your answer as a number in %; do not include the unit.

Q: What value of The senescence retardation (%) has been reported for the following compound? c1ccc(CNc2ncnc3nc[nH]c23)cc1 [Benzyladenine, 6-benzylaminopurine, reference compound]
Result: 64

Q: Form field: reported The senescence retardation (%) of CON(C)CCCCNc1ncnc2nc[nH]c12 [MABD]
Result: 1

Q: What measured The senescence retardation (%) goes with CON(C)CCCNc1ncnc2nc[nH]c12 [MAPD] ?
Result: 18

Q: The senescence retardation (%) for CON(C)CCNc1ncnc2nc[nH]c12 [MAED] ?
Result: 60

---

Consider the following compounds; for each one, report its solubility.
assay: Water solubility; assay type: physicochemical; conditions: 20°C, read-out: Solubility (g/100 g H₂O) (20°C)
Note: unit mg/mL is implicit; provide only the numeric part.

Q: Name the reported solubility value associated with the compound CON(C)CCCNc1ncnc2nc[nH]c12
Result: 136

Q: Recorded solubility of C/C(=C\CNc1ncnc2[nH]cnc12)CO [t-Zeatin, reference compound] , please.
Result: 1.4

Q: Fill in the blank: the reported solubility of CON(C)CCNc1ncnc2nc[nH]c12 is ____.
Result: 99

Q: Looking for the measured solubility of CON(C)CCCCNc1ncnc2nc[nH]c12 , can you help?
Result: 53
